Where a name gives a salt, the structure may show the parent alone.
We begin with a simple list: items and their reported melting point.

Illustrative cases are given below, each with its answer.
[
  {
    "COMPOUND": "C[C@@H]1CCCN1CCCOc1ccc(C(=O)CN2CCN(C(=O)C3CCCCC3)CC2)cc1 [Example 93]",
    "ENDPOINT_RESULT": "230 to 232 °C"
  },
  {
    "COMPOUND": "C[C@@H]1CCCN1CCCOc1c(Cl)cc(C(=O)CN2CCN(C(=O)C3CCCCC3)CC2)cc1Cl [Example 99]",
    "ENDPOINT_RESULT": "168 °C"
  },
  {
    "COMPOUND": "COC(=O)N1CCN(CC(=O)c2ccc(OCCCN3CCC[C@H]3C)c(F)c2)CC1 [Example 127]",
    "ENDPOINT_RESULT": "236 °C"
  }
]

Need melting point, item C[C@@H]1CCCN1CCCOc1ccc(C(=O)CN2CCN(C(=O)c3ccc(F)cc3F)CC2)cc1 [Example 126]
115 to 117 °C

Need melting point, item CC(=O)N1CCN(CC(=O)c2cc(C)c(OCCCN3CCC[C@H]3C)c(C)c2)CC1 [Example 97]
118 to 119 °C

Need melting point, item CC(C(=O)c1ccc(OCCCN2CCCCC2)cc1)N1CCCCC1 (stereo not drawn) [Example 19]
> 240 °C

Need melting point, item C[C@@H]1CCCN1CCCOc1ccc(C(=O)CN2CCC(F)(F)CC2)cc1F [Example 141]
220 °C

Need melting point, item C[C@@H]1CCCN1CCCOc1ccc(C(=O)CN2CCN(C(=O)N(C)C)CC2)cc1F [Example 123]
81 °C

Need melting point, item C[C@@H]1CCCN1CCCOc1ccc(C(=O)C(C)(C)N2CCOCC2)cc1 (as salt: fumaric acid salt) [Example 54]
45 to 50 °C

Need melting point, item C[C@@H]1CCCN1CCCOc1ccc(C(=O)CN2CCNC(=O)C2)cc1 [Example 85]
137 to 145 °C

Need melting point, item Cc1cc(C(=O)CN2CCN(c3ncccn3)CC2)ccc1OCCCN1CCC[C@H]1C [Example 130]
231.5 to 235 °C

Need melting point, item C[C@@H]1CCCN1CCCOc1ccc(C(=O)CN2CCN(C(=O)N3CCOCC3)CC2)cc1 [Example 70]
116 to 125 °C

Need melting point, item Cc1cc(C(=O)CN2CCN(C(=O)C3CCCCC3)CC2)ccc1OCCCN1CCC[C@H]1C [Example 148]
161 to 166.5 °C

Need melting point, item Cc1cc(C(=O)CN2CCN(c3ncccn3)CC2)cc(C)c1OCCCN1CCC[C@H]1C [Example 104]
155 to 160 °C (dec.)

---

QUANTITY_MEASURED: melting point (°C)

[
  {
    "COMPOUND": "C[C@@H]1CCCN1CCCOc1ccc(C(=O)CN2CCC(F)(F)C2)cc1F [Example 139]",
    "melting point (°C)": 206
  }
]

[1] O=C1CN(CCCOc2ccc(C(=O)CN3CCOCC3)cc2)CCN1 [Example 57]
[2] CC(C)C(=O)N1CCN(CC(=O)c2ccc(OCCCN3CCC[C@H]3C)c(F)c2)CC1 [Example 121]
Between the entries labeled 1 and 2 , whose measured melting point is lower? Give the label under which the chosen entry appears.
2
